# experimentalTarget: UniProtKB P08684
# Sequence (P08684 2-503): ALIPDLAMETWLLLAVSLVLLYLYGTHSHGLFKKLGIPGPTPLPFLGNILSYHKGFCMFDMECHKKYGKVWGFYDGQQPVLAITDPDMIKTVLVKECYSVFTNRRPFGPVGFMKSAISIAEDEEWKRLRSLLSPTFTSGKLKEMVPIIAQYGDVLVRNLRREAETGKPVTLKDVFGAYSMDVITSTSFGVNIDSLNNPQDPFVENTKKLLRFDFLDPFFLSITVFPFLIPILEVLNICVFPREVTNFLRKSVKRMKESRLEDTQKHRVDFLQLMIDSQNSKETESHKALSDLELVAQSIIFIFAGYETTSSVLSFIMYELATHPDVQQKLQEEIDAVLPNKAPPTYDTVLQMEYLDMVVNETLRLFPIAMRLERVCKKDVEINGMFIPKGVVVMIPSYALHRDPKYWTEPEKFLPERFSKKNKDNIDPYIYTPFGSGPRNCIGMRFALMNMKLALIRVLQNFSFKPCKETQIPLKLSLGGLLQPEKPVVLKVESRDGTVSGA
# assay: IC50 vs CYP3A by inhibition of lopinavir metabolism in human liver microsomes
# Format: biochemical
# Set-up: 0.01 mg/mL protein human liver microsomes (BD Gentest); tissue BD Gentest; host or cells: human liver microsomes
# measurementParameters: 1.5 μM lopinavir, 0.01 mg/mL human liver microsomes, 8 min at 37° C.; read-out: CYP IC50 (nM) 3A4 (LPV)
measure: IC50 (nM)

Example molecules with recorded IC50:
// IC50 value for O=S(=O)(c1ccc(NCC(O)C2CC2)nc1)N1CCCC1c1ccccc1-c1cncn1CCc1ccc(F)cc1 (single isomer, unassigned) [Compound 34b] : 1

For reference, reported IC50 for CC(=O)Nc1ncc(S(=O)(=O)N2CCCC2c2ccccc2-c2cncn2C2CC2)s1 (centres unmarked) [Compound 31] stands at 25.4

The molecule identified as COCCN(C)c1ccc(S(=O)(=O)N2CCc3c(cccc3-c3cncn3CCc3ccc(F)cc3)C2)cn1 [Compound 62] registered its IC50 at 1.3

// IC50 lookup, molecule = CC(=O)Nc1ncc(S(=O)(=O)N2Cc3cccc(-c4cncn4CCc4ccc(F)cc4)c3C2)s1 [Compound 15] , result: 8

The reported value for CC(=O)Nc1ncc(S(=O)(=O)N2CCCC2c2ccc(-c3cncn3CCc3ccc(F)cc3)cc2)s1 (centres unmarked) [Compound 8] in terms of IC50 is 1.9

P: C[C@H](c1ccc(F)cc1)n1cncc1-c1ccc2c(c1)CN(S(=O)(=O)c1cnc(N)s1)CC2 [Compound 2]
Q: O=C(c1ccc(N2CCOCC2)nc1)N1CCCC1c1ccccc1-c1cncn1CCc1ccc(F)cc1 (single isomer, unassigned) [Compound 43b]
R: CC(c1ccccc1-c1cncn1CCc1ccc(F)cc1)N(C)S(=O)(=O)c1cnc(N2CCN(C)CC2)s1 (centres unmarked) [Compound 4]
S: C[C@H](c1ccc(F)cc1)n1cncc1-c1cccc2c1CCN(S(=O)(=O)c1cnc(N3CCN4C[C@H](O)C[C@H]4C3)s1)C2 [Compound 63]
Query :: Ranking field: IC50; order: falling. The response must list the labels following the requested ordering.
Result :: P, R, S, Q

1: O=C(C1CCOCC1)N1CCCC1c1ccccc1-c1cncn1CCc1ccc(F)cc1 (centres unmarked) [Compound 41]
2: O=C(NCc1ccc(S(=O)(=O)N2CCCC2c2cccc(-c3cncn3CCc3ccc(F)cc3)c2)s1)c1ccccc1 (single isomer, unassigned) [Compound 55a]
Query :: Between 1 and 2 , whose recorded IC50 is greater? Reply with the label of the item you choose.
Result :: 1
(1: 11.1 nM, 2: 0.84 nM)

* * *

# experimentalTarget: CYP2C9 (Homo sapiens, UniProt P11712)
# Construct: 0.1 mg/mL protein human liver microsomes (BD Gentest); tissue BD Gentest; host or cells: human liver microsomes
# Sequence (P11712 whole entry): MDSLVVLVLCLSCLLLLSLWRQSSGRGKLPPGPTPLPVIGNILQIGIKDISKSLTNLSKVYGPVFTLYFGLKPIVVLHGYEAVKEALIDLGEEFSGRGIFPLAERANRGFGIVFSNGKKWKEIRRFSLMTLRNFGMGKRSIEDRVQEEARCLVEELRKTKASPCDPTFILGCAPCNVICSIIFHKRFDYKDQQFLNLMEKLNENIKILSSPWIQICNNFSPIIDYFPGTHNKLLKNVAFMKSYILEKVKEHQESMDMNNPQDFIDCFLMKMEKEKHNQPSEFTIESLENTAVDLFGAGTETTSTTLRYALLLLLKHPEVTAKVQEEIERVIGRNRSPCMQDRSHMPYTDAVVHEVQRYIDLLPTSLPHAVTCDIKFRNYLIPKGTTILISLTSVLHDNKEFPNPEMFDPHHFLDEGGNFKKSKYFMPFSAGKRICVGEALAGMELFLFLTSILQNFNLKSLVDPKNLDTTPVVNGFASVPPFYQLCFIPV
# assay: Cocktail assay for CYPs, diclofenac 4′-hydroxylation (CYP2C9), human liver microsomes
# Assay type: biochemical
# measurementParameters: 5 μM diclofenac, 0.1 mg/mL human liver microsomes, 10 min at 37° C.; read-out: CYP IC50 (nM) 2C9
measure: IC50 (nM)

I: CC(=O)Nc1ncc(S(=O)(=O)N2CCCC2c2ccccc2-c2cncn2CCc2ccc(F)cc2)s1 (stereo not shown)
II: O=S(=O)(c1ccc(NCC(O)C2CC2)nc1)N1CCCC1c1ccccc1-c1cncn1CCc1ccc(F)cc1 (single isomer, unassigned) [Compound 34b]
Query :: // compare measured IC50, left I , right II , return larger Please respond with the label that marks your chosen entry.
Result :: I
(I: 4410 nM, II: 1900 nM)

A: CC(C)OC(=O)N1CCCC1c1ccccc1-c1cncn1CCc1ccc(F)cc1 (single isomer, unassigned) [Compound 39a]
B: O=S(=O)(c1cnc(N2CCN3C[C@H](O)C[C@H]3C2)s1)N1CCc2cccc(-c3cncn3CCc3ccc(F)cc3)c2C1
Query :: # compare IC50 for A vs B ; return the one with the smaller value Indicate which entry you chose by stating its label.
Result :: B

P: O=S(=O)(c1cnc(N2CCN3C[C@H](O)C[C@H]3C2)s1)N1CCCC1c1ccccc1-c1cncn1CCc1ccc(F)cc1 (single isomer, unassigned) [Compound 22a]
Q: O=S(=O)(c1ccc(N2CCC(O)CC2)nc1)N1CCCC1c1cccc(-c2cncn2CCc2ccc(F)cc2)c1 (single isomer, unassigned) [Compound 57b]
Query :: Decide: P or Q , by lowest recorded IC50. Please indicate the selected item by its label.
Result :: Q
(Q: 209 nM, P: 6300 nM)

* * *

# experimentalTarget: CYP2D6 (Homo sapiens, UniProt P10635)
# Construct: 0.1 mg/mL protein human liver microsomes (BD Gentest); tissue BD Gentest; host or cells: human liver microsomes
# Sequence (P10635 whole entry): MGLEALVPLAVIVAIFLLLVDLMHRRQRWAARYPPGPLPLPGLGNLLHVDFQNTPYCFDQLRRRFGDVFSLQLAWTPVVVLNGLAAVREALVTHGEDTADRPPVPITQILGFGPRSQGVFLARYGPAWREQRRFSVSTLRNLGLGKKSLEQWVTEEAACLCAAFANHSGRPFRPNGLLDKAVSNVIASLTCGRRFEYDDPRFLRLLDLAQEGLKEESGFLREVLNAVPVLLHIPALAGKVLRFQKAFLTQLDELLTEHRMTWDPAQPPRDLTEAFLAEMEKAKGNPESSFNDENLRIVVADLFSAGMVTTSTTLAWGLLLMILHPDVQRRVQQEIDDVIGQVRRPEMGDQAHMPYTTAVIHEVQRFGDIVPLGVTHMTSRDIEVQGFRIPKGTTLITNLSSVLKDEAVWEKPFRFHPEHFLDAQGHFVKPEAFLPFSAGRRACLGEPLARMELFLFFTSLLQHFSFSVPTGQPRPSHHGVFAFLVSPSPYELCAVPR
# assay: Cocktail assay for CYPs, dextromethorphan O-demethylation (CYP2D6), human liver microsomes
# Assay type: biochemical
# measurementParameters: 5 μM dextromethorphan, 0.1 mg/mL human liver microsomes, 10 min at 37° C.; read-out: CYP IC50 (nM) 2D6
measure: IC50 (nM)

Summary for this compound, O=S(=O)(c1cnc(N2CCN3C[C@H](O)C[C@H]3C2)s1)N1CCc2c(cccc2-c2cncn2CCc2ccc(F)cc2)C1 [Compound 64] : IC50 is 3130

What the record says about CS(=O)(=O)N1CCCC1c1ccccc1-c1cncn1CCc1ccc(F)cc1 (single isomer, unassigned) [Compound 23a] : IC50 is 6720

IC50 recorded for this compound, O=C(c1ccc(N2CCOCC2)nc1)N1CCCC1c1cccc(-c2cncn2CCc2ccc(F)cc2)c1 (centres unmarked) [Compound 52] , is 2460

For this compound ( O=C(Oc1ccc(Cl)cc1)N1CCCC1c1ccccc1-c1cncn1CCc1ccc(F)cc1 (centres unmarked) [Compound 36] ), measured IC50 is 3700

Record O=C(c1ccc(N2CCOCC2)nc1)N1CCCC1c1ccccc1-c1cncn1CCc1ccc(F)cc1 (single isomer, unassigned) [Compound 43b] , field IC50: 5360

P: CN1CCN(c2ccc(S(=O)(=O)N3CCc4c(cccc4-c4cncn4CCc4ccc(F)cc4)C3)cn2)CC1 [Compound 59]
Q: O=S(=O)(c1cnc(N2CCN3C[C@H](O)C[C@H]3C2)s1)N1CCCC1c1ccccc1-c1cncn1CCc1ccc(F)cc1 (single isomer, unassigned) [Compound 22a]
R: CN1CCN(c2ncc(S(=O)(=O)N3Cc4cccc(-c5cncn5CCc5ccc(F)cc5)c4C3)s2)CC1 [Compound 16]
S: CC(C)OC(=O)N1CCCC1c1ccccc1-c1cncn1CCc1ccc(F)cc1 (single isomer, unassigned) [Compound 39b]
Query :: # desc sort on IC50 across 4 compounds Sort the labels as requested; that list is your answer.
Result :: S, Q, P, R

a: COc1ccc(OC)c(S(=O)(=O)N2CCCC2c2cccc(-c3cncn3CCc3ccc(F)cc3)c2)c1 (single isomer, unassigned) [Compound 53b]
b: O=C(c1cccnc1)N1CCCC1c1cccc(-c2cncn2CCc2ccc(F)cc2)c1 (single isomer, unassigned) [Compound 48b]
Query :: # return whichever of a and b has the smaller IC50 Use the label to indicate which entry you chose.
Result :: a
(a: 2330 nM, b: 3880 nM)

* * *

Below: a set of entries, each annotated with reported IC50.
# experimentalTarget: CYP2C9 (Homo sapiens)
# Construct: 0.1 mg/mL protein human liver microsomes (BD Gentest); tissue BD Gentest; host or cells: human liver microsomes
# assay: Cocktail assay for CYPs, diclofenac 4′-hydroxylation (CYP2C9), human liver microsomes
# Type: biochemical
# measurementParameters: 5 μM diclofenac, 0.1 mg/mL human liver microsomes, 10 min at 37° C.; read-out: CYP IC50 (nM) 2C9

// known answers, use as guide
// recorded IC50 for CC(=O)Nc1ncc(S(=O)(=O)N2CCCC2c2ccccc2-c2cncn2C)s1 (stereo not drawn) : > 10000 nM

Short answer for O=C(c1ccc(N2CCOCC2)nc1)N1CCCC1c1ccccc1-c1cncn1CCc1ccc(F)cc1 (single isomer, unassigned) [Compound 43a] : IC50 was > 10000 nM

***
Notebook: O=C(c1cccnc1)N1CCCC1c1ccccc1-c1cncn1CCc1ccc(F)cc1 (single isomer, unassigned) [Compound 42b] , IC50 read as > 10000 nM

* * *

IC50 overview
# experimentalTarget: CYP1A2 (Homo sapiens)
# Construct: 0.1 mg/mL protein human liver microsomes (BD Gentest); tissue BD Gentest; host or cells: human liver microsomes
# Sequence (P05177 whole entry): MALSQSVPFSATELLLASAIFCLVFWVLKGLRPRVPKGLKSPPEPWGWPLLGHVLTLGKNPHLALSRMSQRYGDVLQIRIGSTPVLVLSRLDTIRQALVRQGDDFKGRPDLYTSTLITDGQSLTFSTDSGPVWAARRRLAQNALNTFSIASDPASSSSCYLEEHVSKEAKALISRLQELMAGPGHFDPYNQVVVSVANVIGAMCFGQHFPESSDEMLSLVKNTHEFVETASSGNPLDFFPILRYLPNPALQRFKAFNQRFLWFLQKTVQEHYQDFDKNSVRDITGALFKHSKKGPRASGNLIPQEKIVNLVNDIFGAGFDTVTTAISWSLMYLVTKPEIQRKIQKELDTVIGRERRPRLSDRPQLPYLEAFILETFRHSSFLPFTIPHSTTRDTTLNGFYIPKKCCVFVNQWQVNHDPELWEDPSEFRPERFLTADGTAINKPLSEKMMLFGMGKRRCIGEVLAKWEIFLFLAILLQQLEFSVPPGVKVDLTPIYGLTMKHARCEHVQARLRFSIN
# assay: Cocktail assay for CYPs, phenacetin O-deethylation (CYP1A2), human liver microsomes
# Assay type: biochemical
# measurementParameters: 10 μM phenacetin, 0.1 mg/mL human liver microsomes, 10 min at 37° C.; read-out: CYP IC50 (nM) 1A2

The molecule listed as O=C(C1CC1)N1CCCC1c1ccccc1-c1cncn1CCc1ccc(F)cc1 (single isomer, unassigned) [Compound 44a] has a reported IC50 of > 10000 nM

---
Per the record, CN1CCN(c2ncc(S(=O)(=O)NC(c3ccccc3)c3ccccc3-c3cncn3CCc3ccc(F)cc3)s2)CC1 (stereo not drawn) has IC50 of > 10000 nM

Summary for this molecule, O=C(c1cccnc1)N1CCCC1c1ccccc1-c1cncn1CCc1ccc(F)cc1 (single isomer, unassigned) [Compound 42a] : IC50 is > 10000 nM
